Target: Gonadotropin-releasing hormone receptor (Homo sapiens) (UniProt P30968)
Sequence (whole entry): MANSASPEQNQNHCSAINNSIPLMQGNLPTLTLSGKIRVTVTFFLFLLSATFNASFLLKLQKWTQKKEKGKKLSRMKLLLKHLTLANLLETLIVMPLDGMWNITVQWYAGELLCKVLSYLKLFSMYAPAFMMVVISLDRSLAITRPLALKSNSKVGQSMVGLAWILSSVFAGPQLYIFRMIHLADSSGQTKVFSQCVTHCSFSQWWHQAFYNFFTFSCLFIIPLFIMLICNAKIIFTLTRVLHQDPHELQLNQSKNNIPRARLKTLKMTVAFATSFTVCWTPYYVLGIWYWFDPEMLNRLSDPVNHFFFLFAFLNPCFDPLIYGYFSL
Assay: Displacement of [125I]triptorelin from human GnRHR expressed in CHO cells at 1 uM
Assay type: cell-based
Threshold rule: Activity greater than or equal to 80% is y; below that, n.

structurenotation=CCNC(=O)Nc1ccc(-c2nc3n(Cc4c(F)cccc4F)cc(C(=O)OCC)c(=O)n3c2CN(CC(=O)NCc2cn(CCN=[N+]=[N-])nn2)Cc2ccccc2)cc1 assignedclass=n
structurenotation=CCNC(=O)Nc1ccc(-c2nc3n(Cc4c(F)cccc4F)cc(C(=O)NCc4cn(CCOCCOCCOCCN=[N+]=[N-])nn4)c(=O)n3c2CN(C)Cc2ccccc2)cc1 assignedclass=n
structurenotation=CCOC(=O)c1cn(Cc2c(F)cccc2F)c2nc(-c3ccc(NC(=O)NCc4cn(CCOCCOCCN=[N+]=[N-])nn4)cc3)c(CN(C)Cc3ccccc3)n2c1=O assignedclass=y
structurenotation=CCOC(=O)c1cn(Cc2c(F)cccc2F)c2nc(-c3ccc(NC(=O)NCc4cn(CCOCCOCCn5cc(CNC(=O)Nc6ccc(-c7nc8n(Cc9c(F)cccc9F)cc(C(=O)OCC)c(=O)n8c7CN(C)Cc7ccccc7)cc6)nn5)nn4)cc3)c(CN(C)Cc3ccccc3)n2c1=O assignedclass=y
structurenotation=CCNC(=O)Nc1ccc(-c2nc3n(Cc4c(F)cccc4F)cc(C(=O)NCc4cn(CCOCCOCCOCCOCCn5cc(CNC(=O)c6cn(Cc7c(F)cccc7F)c7nc(-c8ccc(NC(=O)NCC)cc8)c(CN(C)Cc8ccccc8)n7c6=O)nn5)nn4)c(=O)n3c2CN(C)Cc2ccccc2)cc1 assignedclass=y
structurenotation=CCNC(=O)Nc1ccc(-c2nc3n(Cc4c(F)cccc4F)cc(C(=O)OCC)c(=O)n3c2CN(CC(=O)NCc2cn(CCOCCOCCn3cc(CNC(=O)CN(Cc4ccccc4)Cc4c(-c5ccc(NC(=O)NCC)cc5)nc5n(Cc6c(F)cccc6F)cc(C(=O)OCC)c(=O)n45)nn3)nn2)Cc2ccccc2)cc1 assignedclass=y
structurenotation=CCOC(=O)c1cn(Cc2c(F)cccc2F)c2nc(-c3ccc(NC(=O)NCc4cn(CCOCCOCCOCCOCCn5cc(CNC(=O)Nc6ccc(-c7nc8n(Cc9c(F)cccc9F)cc(C(=O)OCC)c(=O)n8c7CN(C)Cc7ccccc7)cc6)nn5)nn4)cc3)c(CN(C)Cc3ccccc3)n2c1=O assignedclass=y
structurenotation=CCOC(=O)c1cn(Cc2c(F)cccc2F)c2nc(-c3ccc(NC(=O)NCc4cn(CCOCCn5cc(CNC(=O)Nc6ccc(-c7nc8n(Cc9c(F)cccc9F)cc(C(=O)OCC)c(=O)n8c7CN(C)Cc7ccccc7)cc6)nn5)nn4)cc3)c(CN(C)Cc3ccccc3)n2c1=O assignedclass=y
